meta.source: patent US6423519B1

Molecular target: C. albicans GGPTase (Candida albicans, UniProt Q8J224+Q9Y764)
Sequence (Q9Y764 1-398): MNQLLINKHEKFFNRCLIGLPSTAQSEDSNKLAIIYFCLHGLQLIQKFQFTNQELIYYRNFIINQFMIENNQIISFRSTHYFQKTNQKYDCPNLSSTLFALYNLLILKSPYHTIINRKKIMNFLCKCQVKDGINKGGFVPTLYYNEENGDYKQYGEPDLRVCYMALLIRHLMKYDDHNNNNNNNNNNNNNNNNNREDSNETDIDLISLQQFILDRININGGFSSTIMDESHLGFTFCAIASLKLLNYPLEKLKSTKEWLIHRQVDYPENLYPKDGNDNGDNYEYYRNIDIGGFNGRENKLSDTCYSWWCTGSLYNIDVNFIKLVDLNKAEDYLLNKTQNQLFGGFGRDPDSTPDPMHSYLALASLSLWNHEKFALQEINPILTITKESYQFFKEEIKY
Sequence (Q8J224 1-306): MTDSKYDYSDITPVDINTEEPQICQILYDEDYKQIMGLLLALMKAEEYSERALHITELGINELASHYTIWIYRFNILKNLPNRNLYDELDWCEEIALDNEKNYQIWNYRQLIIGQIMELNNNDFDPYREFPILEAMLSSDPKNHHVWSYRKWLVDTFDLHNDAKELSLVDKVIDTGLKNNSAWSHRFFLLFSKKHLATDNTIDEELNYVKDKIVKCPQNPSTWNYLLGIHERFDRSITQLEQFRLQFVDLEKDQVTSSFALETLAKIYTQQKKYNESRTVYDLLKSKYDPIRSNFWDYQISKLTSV
Experiment: biochemical
Conditions: Table 3 Piperidine Analogs; read-out: IC50 (nM) Ca GG
ASSAY_METRIC: IC50

Observe how each entry below is paired with its result.
# MOLECULE, TESTED_SYSTEM, IC50
data = [
    ("CC(C)C[C@H](NC(=O)C1(c2ccccc2)CCN(C(=O)[C@@H](N)CS)CC1)C(=O)O [Compound 53a]", "C. albicans GGPTase (Candida albicans, UniProt Q8J224+Q9Y764)", "< 100 nM"),
    ("N#CC1CCC(CNC(=O)C2(c3ccccc3)CCN(C(=O)[C@@H](N)CS)CC2)CC1 (stereo partly shown) [Compound 53n]", "C. albicans GGPTase (Candida albicans, UniProt Q8J224+Q9Y764)", "< 100 nM"),
    ("C[C@H](N)C(=O)N[C@@H](C)C(=O)N[C@@H](CS)C(=O)N1CCC(C(=O)NCc2ccncc2)(c2ccccc2)CC1 [Compound 96b]", "C. albicans GGPTase (Candida albicans, UniProt Q8J224+Q9Y764)", "< 1000 nM"),
]

Turning now to a further record.
Find IC50 (C. albicans GGPTase (Candida albicans, UniProt Q8J224+Q9Y764)) for the entry N[C@@H](CS)C(=O)N1CCC(C(=O)NC2c3ccccc3-c3ccccc32)(c2ccccc2)CC1 [Compound 53z]
< 100 nM

---

Target: C. albicans GGPTase (Candida albicans, UniProt Q8J224+Q9Y764)
Assay: biochemical
Conditions: Table 1 Peptide Analogs; read-out: IC50 (nM) Ca GG
Peptide text beside a SMILES is read from it.
ASSAY_METRIC: IC50

Some compounds with recorded IC50:
# COMPOUND, IC50
rows = [
    ("NC[C@H](NC(=O)[C@@H](N)CS)C(=O)NCc1cccc(-c2ccccc2)c1 [Compound 89b]", "< 500 nM"),
    ("CC(C)C[C@H](NC(=O)[C@H](Cc1cccc2ccccc12)NC(=O)CCNC(=O)[C@@H](N)CS)C(=O)O [Compound 5g] (HELM PEPTIDE1{C.[bAla].[O=C([C@H](Cc1cccc2ccccc12)N[*:1])[*:2]].L}$$$$V2.0)", "< 1000 nM"),
    ("NC[C@H](NC(=O)[C@@H](N)CS)C(=O)NCc1ccc2c(c1)OCO2 [Compound 89d]", "> 1000 nM"),
    ("CC(C)C[C@H](NC(=O)[C@H](Cc1ccc2ccccc2c1)NC[C@@H](NC[C@@H](N)CS)C(C)C)C(=O)O [Compound 9]", "< 1000 nM"),
    ("NC[C@H](NC(=O)[C@@H](N)CS)C(=O)N1CCN(C(c2ccc(F)cc2)c2ccc(F)cc2)CC1 [Compound 89g]", "< 500 nM"),
]

Value wanted: IC50 (C. albicans GGPTase (Candida albicans, UniProt Q8J224+Q9Y764)) of entry NC[C@H](NC(=O)[C@@H](N)CS)C(=O)NCc1cccc2ccccc12 [Compound 89a]
< 1000 nM

Query the reported IC50 for C. albicans GGPTase (Candida albicans, UniProt Q8J224+Q9Y764); item: CC(C)C[C@H](NC(=O)[C@H](Cc1cccc2ccccc12)NC(=O)C[C@@H](NC(=O)[C@@H](N)CS)C(N)=O)C(=O)O [Compound 5h] (HELM PEPTIDE1{[O=C([C@H](Cc1cccc2ccccc12)N[*:1])[*:2]].L}|PEPTIDE2{C.[dD].[am]}$PEPTIDE1,PEPTIDE2,1:R1-2:R3$$$V2.0)
< 1000 nM

Request - read-out IC50 | tested on C. albicans GGPTase (Candida albicans, UniProt Q8J224+Q9Y764) | compound CC(C)C[C@H](NC(=O)[C@H](Cc1cccc2ccccc12)NC(=O)[C@@H](N)CNC(=O)[C@@H](N)CS)C(=O)O [Compound 5c] (HELM PEPTIDE1{[N[C@@H](CN[*:3])C(=O)[*:2]].[O=C([C@H](Cc1cccc2ccccc12)N[*:1])[*:2]].L}|PEPTIDE2{C}$PEPTIDE1,PEPTIDE2,1:R3-1:R2$$$V2.0)
< 1000 nM

Identify the measured IC50 of NC[C@H](NC(=O)[C@@H](N)CS)C(=O)N1CCC(C(=O)NCc2ccncc2)(c2ccccc2)CC1 [Compound 89c] for C. albicans GGPTase (Candida albicans, UniProt Q8J224+Q9Y764).
< 1000 nM

Provide value of IC50 for this record tested with C. albicans GGPTase (Candida albicans, UniProt Q8J224+Q9Y764): NC[C@H](NC(=O)[C@@H](N)CS)C(=O)NCC(=O)Nc1ccc2ccccc2c1 [Compound 89e] (HELM PEPTIDE1{C.[NC[C@H](N[*:1])C(=O)[*:2]].G.[c1ccc2cc(N[*:1])ccc2c1]}$$$$V2.0)
> 1000 nM

Record NC[C@H](NC(=O)[C@@H](N)CS)C(=O)N1CCC(Cc2ccccc2)CC1 [Compound 89f] : what is its IC50 with C. albicans GGPTase (Candida albicans, UniProt Q8J224+Q9Y764)?
< 1000 nM

---

Target: human GGTase (Homo sapiens)
Assay: Human GGTase inhibition (Hu GG)
Format: biochemical
Conditions: Table 1; read-out: IC50 (nM) Hu GG
Peptide text beside a SMILES is read from it.
ASSAY_METRIC: IC50

# MOLECULE, ASSAY_METRIC, RESULT_VALUE
data = [
    ("NC[C@H](NC(=O)[C@@H](N)CS)C(=O)NCC(=O)Nc1ccc2ccccc2c1 [Compound 89e] (HELM PEPTIDE1{C.[NC[C@H](N[*:1])C(=O)[*:2]].G.[c1ccc2cc(N[*:1])ccc2c1]}$$$$V2.0)", "IC50", "> 1000 nM"),
    ("CC(C)C[C@H](NC(=O)[C@H](Cc1ccc2ccccc2c1)NC[C@@H](NC[C@@H](N)CS)C(C)C)C(=O)O", "IC50", "< 100 nM"),
]

Consider the molecule shown here: NC[C@H](NC(=O)[C@@H](N)CS)C(=O)NCc1cccc2ccccc12 [Compound 89a] What is its recorded IC50?
> 1000 nM

---

Target: C. albicans GGPTase (Candida albicans, UniProt Q8J224+Q9Y764)
Assay: biochemical
Conditions: Table 1; read-out: IC50 (nM) Ca GG
Peptide text beside a SMILES is read from it.
ASSAY_METRIC: IC50

Use these answered entries as a reference point.
# MOLECULE, TESTED_SYSTEM, IC50
data = [
    ("NC[C@H](NC(=O)[C@@H](N)CS)C(=O)NCc1cccc2ccccc12 [Compound 89a]", "C. albicans GGPTase (Candida albicans, UniProt Q8J224+Q9Y764)", "< 1000 nM"),
    ("NC[C@H](NC(=O)[C@@H](N)CS)C(=O)NCC(=O)Nc1ccc2ccccc2c1 [Compound 89e] (HELM PEPTIDE1{C.[NC[C@H](N[*:1])C(=O)[*:2]].G.[c1ccc2cc(N[*:1])ccc2c1]}$$$$V2.0)", "C. albicans GGPTase (Candida albicans, UniProt Q8J224+Q9Y764)", "> 1000 nM"),
]

Turning now to a further molecule:
Reported IC50, molecule NC[C@H](NC(=O)[C@@H](N)CS)C(=O)N1CCN(C(c2ccc(F)cc2)c2ccc(F)cc2)CC1 [Compound 89g] : ____
< 500 nM

---

System: Cryp GG
Experiment: Cryp GG inhibition
Type: biochemical
Conditions: Table 1
Attribute: IC50

# COMPOUND, TESTED_SYSTEM, RESULT_VALUE
records = [
    ("NC[C@H](NC(=O)[C@@H](N)CS)C(=O)NCc1cccc2ccccc12 [Compound 89a]", "Cryp GG", "> 1000 nM"),
]

Dear colleague, I am looking for the recorded IC50 of the following compound: NC[C@H](NC(=O)[C@@H](N)CS)C(=O)N1CCC(C(=O)NCc2ccncc2)(c2ccccc2)CC1 [Compound 89c]
> 1000 nM

---

Test system: IMR90 Cell Line
Assay: Cytotoxicity of GGPTase inhibitors in human cells, IMR90 (MTT)
Type: cell-based
Conditions: IMR-90, 168 h, read-out: IC50 (nM) IMR90
Protocol: (A) Plate out cells at predetermined concentration in a volume of 150 μl. (B) Allow cells to adhere to plate for twenty four hours (C) Add compounds to cells at predetermined concentration (62.5 μg/mL down four-fold, 8 dilutions) n=2 […] 2. IMR90 Cells have 3-{4,5-Dimethylthiazol-2-yl}-2,5-diphenyltetrazolium bromide (MTT) added to them for three hours prior to final read out. After the three hours, media and MTT are removed and MTT crystals are solubilized in 100% DMSO for final OD read.
Listed here: items and their measured IC50.

# MOLECULE, TESTED_SYSTEM, IC50
rows = [
    ("C[C@H](N)C(=O)N[C@@H](C)C(=O)N[C@@H](CS)C(=O)N1CCC(C(=O)NCc2ccncc2)(c2ccccc2)CC1 [Compound 96b]", "IMR90 Cell Line", "> 1000 nM"),
]

Next item in the queue.
Hello, I am looking for reported IC50 with IMR90 Cell Line for C[C@H](N)C(=O)N[C@@H](CS)C(=O)N1CCC(C(=O)NCc2ccncc2)(c2ccccc2)CC1 [Compound 96a] . Could you help?
> 1000 nM
